Tested on: Huh7 cells
Assay: CCK8 cell viability assay, Huh7
Format: cell-based, human
Details: 20 μM, Huh7, CCK8, control taken as 100%
Description: This study aimed to assess the anti-proliferative activity of dolutegravir-1,2,3-triazole derivatives on hepatocellular carcinoma cell lines, Huh7 and hepG2. A comprehensive CCK8 assay was employed to evaluate the impact of these compounds on cell viability, with cells treated at a concentration of 20 μM for 48 h. […] CCK8 assay was used to measure cell viability. […] Absorbance was measured using a Microplate spectrophotometer (Thermo, Waltham, MA, USA) at 450 nm. […]
Catalogue of Cell Viability (100%), 20 μM, 48 h, Huh7 values
Numeric answer only, unit % assumed.

In the examples that follow, each entry is paired with its recorded Cell Viability (100%), 20 μM, 48 h, Huh7.
- MOLECULE: "COc1c2n(cc(C(=O)Nc3cccc(-c4cn(Cc5cc(Br)cc(Br)c5)nn4)c3)c1=O)CC1OCCC(C)N1C2=O (stereo not shown) [Compound 6a]"
  UNIT_TEXT: "%"
  Cell Viability (100%), 20 μM, 48 h, Huh7: 75.97
- MOLECULE: "COc1c2n(cc(C(=O)Nc3cccc(-c4cn(Cc5ccccc5Br)nn4)c3)c1=O)CC1OCCC(C)N1C2=O (stereo not shown) [Compound 6c]"
  UNIT_TEXT: "%"
  Cell Viability (100%), 20 μM, 48 h, Huh7: 39.13
- MOLECULE: "COc1c2n(cc(C(=O)Nc3cccc(-c4cn(-c5cc(C(F)(F)F)cc(C(F)(F)F)c5)nn4)c3)c1=O)CC1OCCC(C)N1C2=O (stereo not shown) [Compound 5r]"
  UNIT_TEXT: "%"
  Cell Viability (100%), 20 μM, 48 h, Huh7: 80.13

Turning now to a further molecule:
stdin: I have this molecule here, CCc1ccc(-n2cc(-c3cccc(NC(=O)c4cn5c(c(OC)c4=O)C(=O)N4C(C)CCOC4C5)c3)nn2)cc1 (stereo not shown) [Compound 5m] , and I need its recorded Cell Viability (100%), 20 μM, 48 h, Huh7.
stdout: 36.41

Origin of measurements: paper PMC11052077
